biological target: GST-JAK2(808-1132) (Homo sapiens, UniProt O60674); construct: GST-JAK2(808-1132); purchased Invitrogen (Carlsbad, USA) #4288; test: EPK JAK-family kinases profiling assay (Caliper mobility shift), JAK2; format: biochemical; conditions: ATP 20 μM, 1.8 nM kinase
Sequence (O60674 808-1132): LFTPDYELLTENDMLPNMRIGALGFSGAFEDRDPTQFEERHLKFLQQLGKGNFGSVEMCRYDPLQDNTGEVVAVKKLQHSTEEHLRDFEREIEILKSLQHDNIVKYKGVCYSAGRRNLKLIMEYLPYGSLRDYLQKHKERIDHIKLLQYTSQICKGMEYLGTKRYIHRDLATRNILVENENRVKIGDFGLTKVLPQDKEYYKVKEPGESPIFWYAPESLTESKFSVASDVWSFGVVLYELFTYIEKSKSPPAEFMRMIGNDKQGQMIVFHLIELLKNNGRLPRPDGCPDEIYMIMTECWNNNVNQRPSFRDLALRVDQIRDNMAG
PROPERTY_MEASURED: pIC50
Kindly note that pIC50 refers to -log10 of the concentration in mol/L and answer with the value alone.

Recorded pIC50, per entry:
>  <MOL>
Cc1cc(-c2cnc3cccc(-c4cc(F)c(CN5CCOCC5)c(F)c4)c3n2)ccc1C(=O)N(C)CCN(C)C

>  <pIC50>
7.57

$$$$
>  <MOL>
Cc1cc(-c2cnc3cccc(-c4cc(F)c(CN5CCOCC5)c(F)c4)c3n2)ccc1C(=O)N1CCN(C)CC1

>  <pIC50>
7.74

$$$$
>  <MOL>
COc1cc(-c2cnc3cccc(-c4ccc(NS(C)(=O)=O)cc4)c3n2)cc(OC)c1OC

>  <pIC50>
7.28

$$$$
>  <MOL>
Cc1cc(-c2cnc3cccc(-c4cc(F)c(CN5CCOCC5)c(F)c4)c3n2)ccc1C(=O)N1CCC(N(C)C)CC1

>  <pIC50>
7.85

$$$$
>  <MOL>
COc1cc(-c2cnc3cccc(-c4ccc(C(=O)N5CCOCC5)cc4F)c3n2)cc(OC)c1OC

>  <pIC50>
7.09

$$$$

Let us examine a further case.
Query: Recorded pIC50 of COc1cc(-c2cnc3cc(C)cc(-c4ccc(C(=O)N5CCOCC5)cc4)c3n2)cc(OC)c1OC , please.
Response: 6.28
